Every entry's value here was drawn from paper PMC12169663.

Test Description: in vivo
Measurement Setup: female, NMRI-nu/nu (Rj:NMRI-Foxn1nu/nu), mouse, iv, total radioactivity
Parameter Measured: SUV at 48 h (SUV)

1. Cc1cc(-c2ccc(NC(=O)[C@H](CCCCNC(=O)CCN3C(=O)CC(SCCC(=O)N[C@H](Cc4ccccc4)C(=O)N[C@H]4CSSC[C@@H](C(=O)N[C@H](C(=O)O)[C@@H](C)O)NC(=O)[C@H]([C@@H](C)O)NC(=O)[C@H](CCCCN)NC(=O)[C@@H](Cc5c[nH]c6ccccc56)NC(=O)[C@H](Cc5ccc(O)cc5)NC4=O)C3=O)NC(=O)CN3CCN(CC(=O)O)CCN(CC(=O)O)CCN(CC(=O)O)CC3)c(C)c2)ccc1/N=N/c1ccc2c(S(=O)(=O)O)cc(S(=O)(=O)O)c(N)c2c1O (stereo partly shown) [[64Cu]Cu-DOTA-EB-TATE, metal not drawn]
5.6
